Entry source: the kinase profiling compilation of Christmann-Franck et al. (2016)

- target.under.test: MAPKAPK3 (human) (UniProt Q16644)
- Sequence (Q16644 whole entry, looked up): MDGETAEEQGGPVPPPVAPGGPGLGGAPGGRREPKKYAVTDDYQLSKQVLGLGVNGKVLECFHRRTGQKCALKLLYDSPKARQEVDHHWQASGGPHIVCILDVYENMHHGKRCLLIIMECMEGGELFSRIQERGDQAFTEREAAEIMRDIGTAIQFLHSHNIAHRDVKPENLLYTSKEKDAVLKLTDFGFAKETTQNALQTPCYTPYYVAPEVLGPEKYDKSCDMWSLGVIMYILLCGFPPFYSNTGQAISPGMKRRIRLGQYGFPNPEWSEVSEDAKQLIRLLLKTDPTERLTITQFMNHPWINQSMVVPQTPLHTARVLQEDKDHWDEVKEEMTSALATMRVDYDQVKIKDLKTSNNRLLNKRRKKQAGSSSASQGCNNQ
- protocol.text: radiometric filter-binding kinase assay, Kinase HotSpot
- condition.notes: compound 0.5 µM; ATP 10 µM
reported.metric: residual activity (%)
A number alone suffices; assume %.

Use these answered entries as a reference point.
{"compound": "COc1cc2ncnc(Nc3cccc(Cl)c3)c2cc1OC", "residual activity [%]": 92.7}
{"compound": "Cc1ccc(Nc2nccc(N(C)c3ccc4c(C)n(C)nc4c3)n2)cc1S(N)(=O)=O", "residual activity [%]": 98.5}
{"compound": "Nc1ncnc2c1c(-c1ccc(Oc3ccccc3)cc1)cn2C1CCCC1", "residual activity [%]": 109}
{"compound": "CC(=O)c1ccc(N2CCOCC2)cc1O", "residual activity [%]": 105}
{"compound": "CCN(CC)CCNC(=O)c1c(C)[nH]c(/C=C2\\C(=O)Nc3ccc(F)cc32)c1C", "residual activity [%]": 102}

Recorded residual activity (compound N#C/C(=C(/N)Sc1ccc(N)cc1)c1ccccc1C(F)(F)F ): 102

Recorded residual activity (compound Nc1ncnc2[nH]nc(Nc3ccc(F)cc3)c12 ): 94

Recorded residual activity (compound CO[C@H]1CC2CC[C@@H](C)[C@@](O)(O2)C(=O)C(=O)N2CCCC[C@H]2C(=O)OC([C@H](C)C[C@@H]2CC[C@@H](O)[C@H](OC)C2)CC(=O)[C@H](C)/C=C(\C)[C@@H](O)[C@@H](OC)C(=O)[C@H](C)C[C@H](C)/C=C/C=C/C=C/1C (some centres undefined) ): 90.9

Recorded residual activity (compound COc1ccc(COc2ccc(Cc3cnc(N)nc3N)cc2OC)cc1 ): 96
